# target-under-test: Pim-2 (Homo sapiens (Human))
# assay-protocol: Pim-Mn enzyme assay (HTRF, 384-well), Pim-2
# Type: biochemical
# setup-conditions: Pim-2 enzyme 0.5 pM, ATP 1.5 μM, BAD (S112) 0.5 μM, HTRF, 22-point curve; read-out: Pim-2-Mn IC50 IP
result-type: pIC50
// field semantics: pIC50 = negative decimal log of concentration (mol/L)

- Cc1nc2cccc(-c3cc4c([nH]3)CCNC4=O)c2nc1Cl: 6.28
- Cc1nc2cccc(-c3cc4c([nH]3)[C@H](C)NC4=O)c2nc1NCC(F)(F)F: 8.22
- C[C@H]1NC(=O)c2cc(-c3c(F)ccc4c(=O)n(C5CC5)c(NC5(C)CC5)nc34)[nH]c21: 10.22
- Cc1nc2cccc(-c3cc4c([nH]3)CCNC4=O)c2nc1-c1ccoc1: 7.21
- Cc1nc2cccc(-c3cc4c([nH]3)CCNC4=O)c2nc1N(C)C(C)C: 8.21

What pIC50 value was documented for this compound, `Cc1nc2cccc(-c3cc4c(n3C)CCNC4=O)c2nc1NC(C)(C)C` ?
8.07

What pIC50 value was documented for this compound, `Cc1nc2cccc(-c3cc4c([nH]3)CCNC4=O)c2nc1NC1CCC1` ?
9.10

What pIC50 value was documented for this compound, `Cc1nc2cccc(-c3cc4c([nH]3)CCNC4=O)c2nc1NC1CNC1` ?
8.23

What pIC50 value was documented for this compound, `Cc1nc2cccc(-c3cc4c([nH]3)CCNC4=O)c2nc1-c1ccoc1C` ?
7.39

----------
# Test system: KMS-12-BM myeloma cell line
# assay-protocol: Pim KMS-12 cell assay (phospho-BAD S112 / total BAD, MSD)
# setup-conditions: Homo sapiens, KMS-12-BM, read-out: KMS-12-BM IC50 IP
Lab note: anything with IC50 below 700 nM is marked yes (1); values at 700 nM or higher are marked no (0).

Study these solved cases before continuing.
- Cc1nc2ccc(F)c(-c3cc4c([nH]3)CCNC4=O)c2nc1NC(C)(C)C: yes (1)
- O=C1NCCc2[nH]c(-c3cccc4ccc(Nc5ccc(Cl)cc5)nc34)cc21: no (0)
- O=C1NCCc2[nH]c(-c3cccc4ccc(NC5CCCCC5)nc34)cc21: no (0)
- O=C1NCCc2[nH]c(-c3cccc4ccc(Cc5ccccc5)nc34)cc21: no (0)
- Cc1nc2cccc(-c3cc4c([nH]3)CCNC4=O)c2nc1N(C)C(C)(C)C: yes (1)

A record lists `CN(c1cnc2cccc(-c3cc4c([nH]3)CCNC4=O)c2n1)C(C)(C)C` . Is its IC50 below 700 nM?
yes (1)

A record lists `Cc1nc2cccc(-c3cc4c([nH]3)CCNC4=O)c2nc1NC(C)C` . Is its IC50 below 700 nM?
yes (1)

A record lists `O=C1NCCc2[nH]c(-c3cccc4ccc(Oc5ccccc5Cl)nc34)cc21` . Is its IC50 below 700 nM?
no (0)

----------
# target-under-test: Pim-2 (Homo sapiens (Human), UniProt Q9P1W9)
# Sequence (Q9P1W9 whole entry): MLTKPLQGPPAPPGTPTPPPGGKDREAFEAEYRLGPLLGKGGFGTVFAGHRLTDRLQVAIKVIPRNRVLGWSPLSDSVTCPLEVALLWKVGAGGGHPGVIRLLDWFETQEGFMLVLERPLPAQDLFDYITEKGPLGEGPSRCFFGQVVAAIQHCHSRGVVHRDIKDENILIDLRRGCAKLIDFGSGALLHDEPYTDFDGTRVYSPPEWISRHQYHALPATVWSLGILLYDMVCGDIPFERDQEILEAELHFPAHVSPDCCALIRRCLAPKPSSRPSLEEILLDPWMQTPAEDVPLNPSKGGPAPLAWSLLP
# assay-protocol: Pim-Mn enzyme assay (HTRF, 384-well), Pim-2
# Type: biochemical
# setup-conditions: Pim-2 enzyme 0.5 pM, ATP 1.5 μM, BAD (S112) 0.5 μM, HTRF, 22-point curve; read-out: Pim-2-Mn IC50 IP
result-type: IC50 (nM)
Record the value in nM, omitting the unit from your answer.

* CC(C)(C)Nc1nc2c(-c3cc4c([nH]3)CCNC4=O)cccc2nc1C(F)(F)F | 2.8
* C[C@H]1NC(=O)c2cc(-c3cccc4c(=O)n(C)c(NC5(C)CCC5)nc34)[nH]c21 | 0.13
* COCCn1c(NC(C)(C)C)nc2c(-c3cc4c([nH]3)CNC4=O)cccc2c1=O | 0.218

What IC50 value was documented for this compound, `Cc1nc2cccc(-c3cc4c([nH]3)[C@@H](C)NC4=O)c2nc1NC1(C)CC1` ?
0.183

What IC50 value was documented for this compound, CC#CCC1CNC(=O)c2cc(-c3cccc4nc(C)c(NC(C)(C)C)nc34)[nH]c21 (racemic) ?
10.5

What IC50 value was documented for this compound, `Cc1nc2cccc(-c3cc4c([nH]3)[C@@H](CO)NC4=O)c2nc1NC1(C)CC1` ?
0.53

What IC50 value was documented for this compound, `Cc1nc2cccc(-c3cc4c([nH]3)CCNC4=S)c2nc1NC(C)(C)C` ?
2.54

Ref: patent US9394297B2
